Reference source: PubChem BioAssay (NCI)

method_notes: NCI Yeast Anticancer Drug Screen. Data for the mec2-1 strain (AID 157)
condition_context: S. cerevisiae mec2-1 strain, at 5.0 µM (retest, dose inferred, filed as 0.5)
The panel holds about 79,000 compounds, 15% with a hit somewhere; the sample as a whole holds those more often. Active and inactive are the calls of the source. Rule as the data show it: active = growth inhibition above about 70%; inactive = the rest.
Classes to choose from: active, inactive

compound	class_name
CCOC(=O)C(/C=N\C(=S)Nc1ccc(Cl)c(Cl)c1)=C(/O)c1ccccc1	inactive
Nc1ccc2ccccc2c1N=Nc1ccccc1	inactive
CC(C)[C@@H]1CC[C@@H](C)C[C@H]1OC(=O)NN	inactive
Clc1ccc(CN2COc3c(ccc4cccnc34)C2)cc1	inactive
FC(F)(F)c1ccc(Nc2ccc(C(F)(F)F)cc2)cc1	inactive

Assay outcome for COc1cccc(N2CCN(CC(O)COc3cc4c(c5c3CCCC5)CCCC4)CC2)c1 (stereo unspecified) : what was it?
inactive

Assay outcome for CSC(=S)n1nc(-c2cccs2)c(N=Nc2ccc(Cl)cc2)c1C(F)(F)F : what was it?
inactive

Assay outcome for CCOP(=O)(OCC)/C(C#N)=C/c1coc2cc(C)cc(C)c2c1=O : what was it?
inactive

Assay outcome for Cc1ccc(OS(=O)(=O)c2ccc(Br)cc2)cc1 : what was it?
inactive

Assay outcome for CC1=CC2OC3CC4OC(=O)/C=C/C=C/C(C(C)O)OCC(=O)C(C)CC(=O)OCC2(CC1)C4(C)C31CO1 (stereo unspecified) : what was it?
inactive

Assay outcome for S=C1NC2=C(CSC/C2=C\c2cccc(Br)c2)C(c2cccc(Br)c2)N1 (stereo unspecified) : what was it?
inactive
